- run-description: melting temperature; fluorescence melt of hairpins on a sequencing array, two-state fit, raised by 9.35 °C to match UV melts
- run-conditions: sodium 0.088 M
quantity-measured: Tm (°C)

[
  {
    "sequence-text": "GCCTGCGCGAAAGCGGGC (((..(((....))))))",
    "endpoint-value": 55.5
  },
  {
    "sequence-text": "GAAGACGAAAGTCGTTTC ((((((....)))..)))",
    "endpoint-value": 35.3
  },
  {
    "sequence-text": "GATCTAGGAGTAGATC ((((((....))))))",
    "endpoint-value": 40.4
  },
  {
    "sequence-text": "ACTAGGAAACTAGT (((((....)))))",
    "endpoint-value": 37.9
  },
  {
    "sequence-text": "GTTAGTGGAAACACTAGC (.(((((....))))).)",
    "endpoint-value": 40
  },
  {
    "sequence-text": "GCATATCCGAAAGGATGC (((..(((....))))))",
    "endpoint-value": 43.5
  }
]

---

Quick reference: folding enthalpy of the listed items.
- run-description: folding enthalpy; higher = less favourable; fluorescence melt of hairpins on a sequencing array, two-state fit
- run-conditions: sodium 0.088 M
quantity-measured: folding enthalpy (kcal/mol)

[
  {
    "sequence-text": "GATCACTGTAGTGATC ((((((....))))))",
    "quantity-measured": "folding enthalpy",
    "endpoint-value": -39.7
  },
  {
    "sequence-text": "GTAAGGGGAAACCCTTGC (.(((((....))))).)",
    "quantity-measured": "folding enthalpy",
    "endpoint-value": -23.3
  },
  {
    "sequence-text": "GTGGGATCGAAAGATCAC (((..(((....))))))",
    "quantity-measured": "folding enthalpy",
    "endpoint-value": -44.4
  },
  {
    "sequence-text": "GTTTTGCGAAAGCAGAAC (((.(((....))).)))",
    "quantity-measured": "folding enthalpy",
    "endpoint-value": -29.9
  },
  {
    "sequence-text": "GGCCCTGGAAACAGAGCC (((.(((....))).)))",
    "quantity-measured": "folding enthalpy",
    "endpoint-value": -41.2
  },
  {
    "sequence-text": "GTTTTACCGAAAGGTAAC (((..(((....))))))",
    "quantity-measured": "folding enthalpy",
    "endpoint-value": -12.3
  },
  {
    "sequence-text": "GATTCGCGAAAGCGCATC (((.(((....))).)))",
    "quantity-measured": "folding enthalpy",
    "endpoint-value": -21.5
  },
  {
    "sequence-text": "GTTGCTCGAAAGAGAAAC (((.(((....))).)))",
    "quantity-measured": "folding enthalpy",
    "endpoint-value": -32.3
  },
  {
    "sequence-text": "GGGTAAGAAATTACCC ((((((....))))))",
    "quantity-measured": "folding enthalpy",
    "endpoint-value": -27.4
  },
  {
    "sequence-text": "GCGTGTTTACGC ((((....))))",
    "quantity-measured": "folding enthalpy",
    "endpoint-value": -30
  },
  {
    "sequence-text": "GGAACCCGAAAGGGTCC (((.(((....))))))",
    "quantity-measured": "folding enthalpy",
    "endpoint-value": -15.8
  },
  {
    "sequence-text": "GGTGACGAAAGTCTTACC ((((((....)))..)))",
    "quantity-measured": "folding enthalpy",
    "endpoint-value": -15
  }
]

Every entry's value here was drawn from the array DNA melting data of Ke et al. (doi:10.1101/2024.01.08.574731).
